Biological target: T1, FX zymogen (UniProt P00742 41-179; P00742 183-488)
T1 chain 1: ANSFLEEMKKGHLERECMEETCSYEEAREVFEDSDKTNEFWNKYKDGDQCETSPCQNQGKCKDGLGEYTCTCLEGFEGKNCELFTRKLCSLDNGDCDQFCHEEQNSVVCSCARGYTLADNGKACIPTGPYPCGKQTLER
T1 chain 2: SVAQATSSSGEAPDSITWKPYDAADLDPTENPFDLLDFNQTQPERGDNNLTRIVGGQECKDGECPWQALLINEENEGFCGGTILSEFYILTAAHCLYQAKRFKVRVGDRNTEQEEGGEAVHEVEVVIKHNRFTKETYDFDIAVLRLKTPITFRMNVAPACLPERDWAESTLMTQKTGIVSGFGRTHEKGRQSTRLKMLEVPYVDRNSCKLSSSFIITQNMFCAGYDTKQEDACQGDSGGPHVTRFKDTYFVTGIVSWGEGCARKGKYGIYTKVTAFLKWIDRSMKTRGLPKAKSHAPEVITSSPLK
Test: BLI
binders and their reported pKd
# reply with the number alone; pKd is -log10 of concentration in mol/L

Solved entries:
BIIB-12-896 (antibody, V domains shown) VH: QVQLVQSGAEVKKPGASVKVSCKASGYTFTSYYMHWVRQAPGQGLEWMGIINPSGGSTSYAQKFQGRVTMTRDTSTSTVYMELSSLRSEDTAVYYCARGLGQQRRGFDIWGQGTLVTVSS VL: DIQMTQSPSSVSASVGDRVTITCRASQGISSWLAWYQQKPGKAPKLLIYAASSLQSGVPSRFSGSGSGTDFTLTISSLQPEDFATYYCQQANSFPFTFGGGTKVEIK :: 7.20
BIIB-12-1314 (antibody, V domains shown) VH: QVQLVESGGGVVQPGRSLRLSCAASGFTFSSYGMHWVRQAPGKGLEWVAVISYDGSNKYYADSVKGRFTISRDNSKNTLYLQMNSLRAEDTAVYYCAKGTRWAGNWGQGTLVTVSS VL: DIQMTQSPSSVSASVGDRVTITCRASQGISSWLAWYQQKPGKAPKLLIYAASSLQSGVPSRFSGSGSGTDFTLTISSLQPEDFATYYCQQANFFPITFGGGTKVEIK :: 7.98
BIIB-12-1320 (antibody, V domains shown) VH: QLQLQESGPGLVKPSETLSLTCTVSGGSISSSSYYWGWIRQPPGKGLEWIGSIYYSGSTYYNPSLKSRVTISVDTSKNQFSLKLSSVTAADTAVYYCARGSGLLVREHYYYYMDVWGKGTTVTVS VL: DIQMTQSPSSLSASVGDRVTITCRASQSISSYLNWYQQKPGKAPKLLIYAASSLQSGVPSRFSGSGSGTDFTLTISSLQPEDFATYYCQQADDTPWTFGGGTKVEIK :: 8.08
BIIB-12-1324 (antibody, V domains shown) VH: QVQLVQSGAEVKKPGASVKVSCKASGYTFTSYYMVWVRQAPGQGLEWMGIINPSGGSTSYAQKFQGRVTMTRDTSTSTVYMELSSLRSEDTAVYYCARLPRYSKRGLDVWGQGTMVTVSS VL: EIVMTQSPATLSLSPGERATLSCRASQSVSSYLAWYQQKPGQAPRLLIYDSSNRATGIPARFSGSGSGTDFTLTISSLEPEDFAVYYCQQLVSWPTFGGGTKVEIK :: 7.17

Read off the recorded pKd for BIIB-12-893 (antibody, V domains shown) VH: QVQLVQSGAEVKKPGASVKVSCKASGYTFTSYYMVWVRQAPGQGLEWMGIINPSGGSTSYAQKFQGRVTMTRDTSTSTVYMELSSLRSEDTAVYYCARDPGRRQYSFYGMDVWGQGTTVTVSS VL: DIQLTQSPSSVSASVGDRVTITCRASQGISSWLAWYQQKPGKAPKLLIYAASSLQSGVPSRFSGSGSGTDFTLTISSLQPEDFATYYCQQAAAFPFTFGGGTKVEIK 7.28
